Quick reference for melting point among some compounds

In [3]: df
Out[3]:
                                compound  reported_metric  assay_result
0  C=COCCONC(=O)c1ccc(F)cc1Nc1ccc(I)cc1F    melting point        104 °C

Field request: melting point | item: CN1C(=O)CN=C(c2cccc(C(F)(F)F)c2)c2ccccc21
121 to 122 °C

Field request: melting point | item: Cc1cccc(C)c1C(N)=NO
77 to 79 °C

Field request: melting point | item: CCCc1nc2c(N)ncc(Br)c2n1CCOCCNC(=O)NC1CCCCC1
185 to 186 °C

Field request: melting point | item: CC(C)N(Cc1nc(-c2ncn3c2CN(C)C(=O)c2c-3ccc(F)c2Cl)no1)C(C)C
153 to 156 °C

Field request: melting point | item: CC(=O)Oc1ccc(C(CN(C(C)=O)C(C)(C)C)OC(C)=O)nc1C (centres undefined)
124 to 128 °C

Field request: melting point | item: COc1ccccc1Oc1c(NS(=O)(=O)c2ccc(C)cn2)nc(-c2ccncc2)nc1OC
225 to 226 °C

Field request: melting point | item: CC1Cc2cc3c(cc2C(c2ccc([N+](=O)[O-])cc2)=NN1C1=NC(=O)CS1)OCO3 (centres undefined)
218 to 220 °C

Field request: melting point | item: CCC(CCOC)c1ccc(Cl)c2nc3n(c12)CCCN3c1ccc(Cl)cc1Cl (centres undefined)
144 to 146 °C
